- targetUnderTest: RSV F protein of subtype B (18537) on recombinant mKate-RSV virus (Respiratory syncytial virus subtype B …, UniProt P13843 26-574)
- measurementProtocol: cell-based or functional assay

{"binder": "ADI-18956 (antibody, V domains shown, full-length IgG from yeast) VH: QVQLVQSGAELKKPGSSVKVSCKASADTFKSYAINWVRQAPGQGLEWMGEFIPIFGVSPSAQKFQGRVTITADRSTSTAYMELSSLKSDDSAIYYCATRLYTLGSPFDNWGQGTTVTVSS VL: QPVLTQPRSVSGSPGQSVTISCTGTSSDVGDYDYVSWYQHLPGEVPKLIVYNVIKRPSGVPDRFSGSKSGNTASLTISGLQAEDEADYYCCSYAGRYIYVFGSGTKLTVL", "resultComparator": ">", "Neut IC50 (µg/ml) subtype B (µg/mL)": 10}
{"binder": "ADI-18967 (antibody, V domains shown, full-length IgG from yeast; also called Antibody Number 315; Ab # 315) VH: QVQLVQSGAEVKKPGASVKVACKVSGSSLTELSIQWVRLPPGKRLEWLGAFDAEDGAPIYSPKFQGRVTMTEDRSTETAYMEVTSLRSEDTALYYCATPLPAGALDKWGQGTLVTVSS VL: DIQMTQSPSSLSASVGDRVTISCRASQTISRYLNWYQVKPGTAPKLLIYAASSLQTGVPSRFSASGSGADFTLTISSLQPEDFATYHCQQTYIIPYTFGQGTKVDIK", "resultComparator": "=", "Neut IC50 (µg/ml) subtype B (µg/mL)": 3.65}
{"binder": "ADI-18922 (antibody, V domains shown, full-length IgG from yeast; also called Antibody Number 276; Ab # 276) VH: QVQLQESGPGRVKPSETLSLTCSVADGSISSGHYYWGWVRQPPGKGLEWIATIHDSGATYYNPSLQSRVTISVDTSKNQFSLKVNSVTAADTAVYYCASRRGSGWFFDSWGQGTLVTVSS VL: DIVLTQSPATLSVSPGERVTLSCRASHSVNYNLAWYQQKPGQAPRLLIYGSSTRATGLPARFSGSGSGTEFTLTISSLQSEDFAIYYCQQYNNWPPGGTFGQGTKVEIK", "resultComparator": "=", "Neut IC50 (µg/ml) subtype B (µg/mL)": 5.05}
{"binder": "ADI-18917 (antibody, V domains shown, full-length IgG from yeast; also called Antibody Number 271; Ab # 271) VH: EVQLVESGGGLVKPGGSLRLSCAASGFTFSSFGMHWVRQAPGQGLEWVASITGGSSYINYADSVKGRFTISRDNAKKSLSLQMKNLRAEDTAEYYCVRGVLPGDTGGGWFDSWGQGTLVTVSS VL: QSVLTQPPSMSGAPGQRVTISCTGTSSNIGAGYDVQWYQQFPGTAPKLLISGNNNRPSGVPDRFSGSKSGASASLAITGLQAEDEADYYCQSYDYSLNWVFGGGTKLTVL", "resultComparator": "=", "Neut IC50 (µg/ml) subtype B (µg/mL)": 0.091}
{"binder": "ADI-18902 (antibody, V domains shown, full-length IgG from yeast) VH: QVQLQESGPGLVKPSETLSLTCTVSGGSISGYYWSWIRQPPGRGLEWIGFIYYSGSTSYDSSLKSRVTISVDTSKNQFSLNLSSVTAADTAVYYCARSTWDYGDHFPFDYWGQGTLVTVSS VL: SYELTQPPSVSVAPGKTARITCGGNNIGIKDVHWYQLRPGQAPVLVISYDSDRPSGIPERFSGSNSGNTATLTISRVEAGDEADYFCQVWDSSPDHPYVFGTGTKLTVL", "resultComparator": "=", "Neut IC50 (µg/ml) subtype B (µg/mL)": 0.15}
{"binder": "ADI-18911 (antibody, V domains shown, full-length IgG from yeast) VH: QVQLVESGAEARKPGESLKISCKASGYSFTNYWIGWVRQMPGKGLEWMGVIYPADSDTRYSPSFKGQVTISADKSISTAYLQWTRLKASDTAVYFCARLGIGAAARNYWGQGTLVTVSS VL: DIQVTQSPSSLSASVGDRVTITCQASQDISDSLNWYQQKPGKAPNLLIYDASKSETGVPSRFSGSGSGTDFTFTISSLQPEDLATYYCLQFDNLPPTFGQGTRLEIK", "resultComparator": "=", "Neut IC50 (µg/ml) subtype B (µg/mL)": 4.85}
